molecular target: Adenosine receptor A2a (Homo sapiens, UniProt P29274)
Sequence (P29274 whole entry): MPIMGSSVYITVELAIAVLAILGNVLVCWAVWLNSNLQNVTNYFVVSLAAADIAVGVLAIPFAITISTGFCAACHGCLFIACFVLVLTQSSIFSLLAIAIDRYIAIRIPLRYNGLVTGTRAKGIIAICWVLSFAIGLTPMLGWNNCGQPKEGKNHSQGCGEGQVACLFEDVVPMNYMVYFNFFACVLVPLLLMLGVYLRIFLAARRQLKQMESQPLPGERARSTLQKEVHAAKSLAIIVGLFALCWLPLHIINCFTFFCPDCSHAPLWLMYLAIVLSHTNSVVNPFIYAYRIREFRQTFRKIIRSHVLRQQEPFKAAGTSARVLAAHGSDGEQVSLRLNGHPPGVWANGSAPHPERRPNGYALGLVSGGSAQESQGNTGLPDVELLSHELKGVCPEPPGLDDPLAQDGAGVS
measured_attribute: Ki (nM)
Give the value in nM but do not write nM after it.

Given `CCOC(=O)c1cnc(NC2CCCC2)n2nc(-c3ccco3)nc12` , report its Ki on Adenosine receptor A2a (Homo sapiens, UniProt P29274).
43.4

Given `CCOC(=O)c1cnc(NCc2ccc(F)cc2)n2nc(-c3ccco3)nc12` , report its Ki on Adenosine receptor A2a (Homo sapiens, UniProt P29274).
39.3

###

Overview of recorded pKi for various molecules
target: Adenosine receptor A2b (Homo sapiens, UniProt P29275); experiment: Antagonist activity at human adenosine A2B receptor expressed in CHO cells assessed as inhibition of NECA-stimulated adenylyl cyclase activity
Sequence (P29275 whole entry): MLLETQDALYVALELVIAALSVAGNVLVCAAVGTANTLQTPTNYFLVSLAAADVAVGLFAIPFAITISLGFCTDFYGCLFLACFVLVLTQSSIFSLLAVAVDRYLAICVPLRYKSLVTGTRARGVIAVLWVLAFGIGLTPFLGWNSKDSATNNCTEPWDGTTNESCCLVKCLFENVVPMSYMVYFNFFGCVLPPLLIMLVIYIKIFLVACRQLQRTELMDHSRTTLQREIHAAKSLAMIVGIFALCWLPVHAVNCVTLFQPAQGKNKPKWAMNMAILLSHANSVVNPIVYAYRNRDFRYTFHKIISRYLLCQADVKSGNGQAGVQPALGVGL
pKi: −log10 of the molar value.

>>> result("O=C(O)c1cnc(NC2CCCC2)n2nc(-c3ccco3)nc12")
"< 5.00"
>>> result("CCOC(=O)c1cnc(NCc2ccc(-c3ccccc3)cc2)n2nc(-c3ccco3)nc12")
"< 4.52"

Specify measured pKi for `COc1ccc(CNc2ncc(C(=O)O)c3nc(-c4ccco4)nn23)cc1` .
< 4.52

Specify measured pKi for `CCOC(=O)c1cnc(NCC2CCCCC2)n2nc(-c3ccco3)nc12` .
< 5.00

Specify measured pKi for `CCOC(=O)c1cnc(NC2CCCC2)n2nc(-c3ccco3)nc12` .
5.34
